test: reversal of MRP1-mediated doxorubicin resistance, pilot screen, H69AR cells, doxorubicin co-treatment (AID 601); details: H69AR cells + 2 uM doxorubicin, CellTiter-Glo, 72 h; at 10 µM; hits give high values
measure: differential viability (reversal) (%)
Respond numerically; units are % and should not be typed.

Solved entries (count: 8):
>  <molecule>
CSCCC(NC(=O)c1ccco1)C(=O)O (stereo not drawn)

>  <differential viability (reversal), %>
0.86

$$$$
>  <molecule>
CCOC(=O)c1c(C)c(C(=O)NCCN2CCOCC2)c(C)n1C

>  <differential viability (reversal), %>
-3.83

$$$$
>  <molecule>
COc1ccccc1NC(=O)C1CC(=O)N(c2ccc(F)cc2)C1 (stereo not drawn)

>  <differential viability (reversal), %>
8.91

$$$$
>  <molecule>
O=C(COC(=O)C1=COCCO1)Nc1ccccc1Oc1ccccc1

>  <differential viability (reversal), %>
5.48

$$$$
>  <molecule>
C[C@]12CC[C@@H]3c4ccc(O[C@@H]5O[C@H](C(=O)O)[C@@H](O)[C@H](O)[C@H]5O)cc4CC[C@H]3[C@@H]1C[C@@H](O)[C@@H]2O

>  <differential viability (reversal), %>
17.1

$$$$
>  <molecule>
COc1ccc(NC(=O)CSc2nnc(-c3ccccc3C)n2C)cc1

>  <differential viability (reversal), %>
13.8

$$$$
>  <molecule>
CCOC(=O)CCC(=O)O[C@H]1[C@H](O[C@@H]2[C@@H](C)[C@H](O[C@H]3C[C@@](C)(OC)[C@@H](O)[C@H](C)O3)[C@@H](C)C(=O)O[C@H](CC)[C@@](C)(O)[C@H](O)[C@@H](C)C(=O)[C@H](C)C[C@@]2(C)O)O[C@H](C)C[C@@H]1N(C)C

>  <differential viability (reversal), %>
-0.63

$$$$
>  <molecule>
Cn1c(=N)c(S(=O)(=O)c2ccc(Cl)cc2)cc2c(=O)n3ccccc3nc21

>  <differential viability (reversal), %>
-3.57

$$$$

**Q:** Identify measured differential viability (reversal) associated with `Cc1nc2nc(Cc3ccccc3)[nH]n2c(=O)c1Cc1ccccc1`
**A:** 8.81

**Q:** Identify measured differential viability (reversal) associated with C=CCSC1=C(C#N)C(c2ccccc2OCC)CC(=O)N1 (stereo not drawn)
**A:** 3.58

**Q:** Identify measured differential viability (reversal) associated with Cc1cc2n(n1)C(c1ccccc1)Nc1ccccc1-2 (stereo not drawn)
**A:** 1.64

**Q:** Identify measured differential viability (reversal) associated with CC1Cc2ccccc2N1NC(=O)c1ccc(Cl)c(S(N)(=O)=O)c1 (stereo not drawn)
**A:** 1.41

**Q:** Identify measured differential viability (reversal) associated with COc1ccc(C2CC(=O)c3c(C)nc(N4CCN(c5ccccc5)CC4)nc3C2)cc1 (stereo not drawn)
**A:** 19

**Q:** Identify measured differential viability (reversal) associated with `O=S(=O)(c1cccs1)N1CCN(C/C=C/c2ccccc2)CC1`
**A:** 1.57

**Q:** Identify measured differential viability (reversal) associated with `COc1cccc(OC)c1C(=O)Nc1ccc(CN2CCCCC2)cc1`
**A:** 8.96

**Q:** Identify measured differential viability (reversal) associated with `N#Cc1ccc(CSc2nnc(-c3cnccn3)o2)cc1`
**A:** 23.4

---

biological target: Receptor tyrosine-protein kinase erbB-2 (Homo sapiens) (UniProt P04626); test: reducers of endogenous Her2 protein level, primary screen, SKBR3 breast tumor cells, AlphaScreen, ATP viability (AID 461); conditions: 18-24 h, at 10 µM, hits give low values;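 also: lower value means less Her2 protein in the cells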
Sequence (P04626 whole entry, looked up): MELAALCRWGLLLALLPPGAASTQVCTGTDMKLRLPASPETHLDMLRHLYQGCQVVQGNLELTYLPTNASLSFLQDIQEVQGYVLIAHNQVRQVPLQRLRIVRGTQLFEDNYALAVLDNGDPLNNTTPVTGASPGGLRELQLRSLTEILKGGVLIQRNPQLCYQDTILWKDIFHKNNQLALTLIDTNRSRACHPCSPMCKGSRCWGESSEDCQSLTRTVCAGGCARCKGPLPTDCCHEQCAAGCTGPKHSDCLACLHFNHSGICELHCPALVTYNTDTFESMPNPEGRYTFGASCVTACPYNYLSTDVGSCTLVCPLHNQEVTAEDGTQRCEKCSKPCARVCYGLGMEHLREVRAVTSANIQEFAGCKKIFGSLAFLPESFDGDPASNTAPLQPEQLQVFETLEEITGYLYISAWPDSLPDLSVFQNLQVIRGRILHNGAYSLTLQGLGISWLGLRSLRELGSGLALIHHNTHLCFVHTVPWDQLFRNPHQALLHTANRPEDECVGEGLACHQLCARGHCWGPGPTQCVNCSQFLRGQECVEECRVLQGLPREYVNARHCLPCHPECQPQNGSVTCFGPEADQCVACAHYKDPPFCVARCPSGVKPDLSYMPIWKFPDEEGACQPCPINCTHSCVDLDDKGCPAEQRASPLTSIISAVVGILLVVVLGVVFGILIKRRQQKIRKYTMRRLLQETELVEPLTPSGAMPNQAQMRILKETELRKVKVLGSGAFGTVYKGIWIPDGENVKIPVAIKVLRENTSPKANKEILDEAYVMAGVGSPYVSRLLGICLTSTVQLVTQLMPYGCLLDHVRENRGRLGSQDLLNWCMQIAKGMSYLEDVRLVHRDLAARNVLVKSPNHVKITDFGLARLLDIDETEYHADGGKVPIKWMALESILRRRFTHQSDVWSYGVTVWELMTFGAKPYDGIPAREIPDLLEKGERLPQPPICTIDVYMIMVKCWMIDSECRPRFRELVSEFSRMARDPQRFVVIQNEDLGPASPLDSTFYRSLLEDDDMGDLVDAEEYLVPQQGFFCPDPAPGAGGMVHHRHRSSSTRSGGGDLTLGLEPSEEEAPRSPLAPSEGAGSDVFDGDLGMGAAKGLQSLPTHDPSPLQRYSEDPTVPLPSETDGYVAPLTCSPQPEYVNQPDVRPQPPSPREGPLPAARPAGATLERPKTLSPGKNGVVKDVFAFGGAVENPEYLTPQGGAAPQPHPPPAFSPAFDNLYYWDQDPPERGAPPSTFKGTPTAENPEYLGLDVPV
Activity calls are given as the source filed them.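 Rule for the calls: active = Her2 level under about 52% in both replicate screens, with viability over 70% of control (limit read from the data); inconclusive = Her2 under the limit in one screen only, or viability under 70%; inactive = Her2 level above the set limit.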
measure: Her2 level

**Q:** Identify measured Her2 level associated with CC1(C)CC(=O)C2=C(C1)OC(=O)C2(NC(=O)c1cccs1)C(F)(F)F (stereo not given)
**A:** 83% (inactive)

**Q:** Identify measured Her2 level associated with `Cc1ccc(-n2nnnc2SCC(=O)N2CCN(C(=O)c3ccco3)CC2)c(C)c1`
**A:** 84.5% (inactive)

**Q:** Identify measured Her2 level associated with `CCOC(=O)N1CCN(C(=O)c2cccn3c(=O)c4sccc4nc23)CC1`
**A:** 93.5% (inactive)

**Q:** Identify measured Her2 level associated with `c1ccc(-c2noc(C34CC5CC(CC(C5)C3)C4)n2)nc1`
**A:** 106% (inactive)

**Q:** Identify measured Her2 level associated with `COC(=O)c1cc2ccsc2n1Cc1nc(-c2ccc(OC)cc2)oc1C`
**A:** 82% (inactive)

---

experiment: OD615 S. cerevisiae growth inhibition, permissive medium, pilot counter-assay, permissive growth control for S. cerevisiae lifespan shortening project (AID 705); settings: OD615, 24 h, at 10 µM, hits give high values
measure: growth inhibition (%)
Respond numerically; units are % and should not be typed.

>  <compound>
CCCCNC(=O)C1C2C=CC3(CN(Cc4ccc(C)cc4)C(=O)C13)O2 (centres undefined)

>  <growth inhibition (%)>
2.61

$$$$
>  <compound>
COc1ccc(-n2c(Cn3c(=O)sc4ccccc43)nnc2SCC(=O)N2CCCCC2)cc1

>  <growth inhibition (%)>
3.02

$$$$

**Q:** Identify measured growth inhibition associated with CCOc1ccc(C2N(c3ccc(OC)cc3)C(=O)C3CCCN32)cc1OC (centres undefined)
**A:** -1.7

**Q:** Identify measured growth inhibition associated with `CC1CCN(C(=O)CSc2nnc(Cc3cccn3C)n2-c2ccc(F)cc2)CC1`
**A:** -5.51

**Q:** Identify measured growth inhibition associated with `CCCSc1n[nH]c(NC(C)=O)n1`
**A:** -9.97

**Q:** Identify measured growth inhibition associated with `CC(C)N1CC(O)=C(c2ccccc2)C1=N`
**A:** 2.25

**Q:** Identify measured growth inhibition associated with `COc1ccc(OC)c(S(=O)(=O)NCc2cn3c(C)csc3n2)c1`
**A:** -10.1

---

Recorded RAM network inhibition, one value per entry.
test: RAM signaling pathway blockade in yeast – S. cerevisiae, Pdr1DBD-CYC8 efflux-inhibited sensitized strain, primary screen (AID 1298);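 also: 0% = DMSO untreated cells without growth and 100% = 10 µM 1-NA-PP1 full growth; higher means more yeast growth rescued from 5-FOA killing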; conditions: S. cerevisiae cbk1-as DSE1-URA3 strain, 5-FOA growth OD615, 2 d; at 50 µM; hits give high values
Respond numerically; units are % and should not be typed.

Solved entries (count: 4):
>  <compound>
Cc1ccc(S(=O)(=O)c2cccc(S(=O)(=O)N3CCCC3)c2)cc1S(=O)(=O)N1CCCC1

>  <unit_annotation>
%

>  <RAM network inhibition>
2.38

$$$$
>  <compound>
CCc1nnc(NC(=O)CSc2nccn2-c2cccc(C)c2C)s1

>  <unit_annotation>
%

>  <RAM network inhibition>
1.37

$$$$
>  <compound>
CNC(=O)C1C2C=CC3(O2)C1C(=O)N(CCOC)C3C(=O)NCc1ccc(OC)cc1 (centres undefined)

>  <unit_annotation>
%

>  <RAM network inhibition>
2.29

$$$$
>  <compound>
Cc1ccc(-c2noc(CSc3nnnn3-c3ccccc3)n2)cc1

>  <unit_annotation>
%

>  <RAM network inhibition>
7.44

$$$$

The record that follows has no RAM network inhibition shown yet.
**Q:** Identify measured RAM network inhibition associated with CCn1c(C2CC(=O)N(c3ccc(C)c(C)c3)C2)nc2ccccc21 (centres undefined)
**A:** 0.57

---

test: HUVEC growth inhibition – cell-based, human, primary screen (AID 575); details: HUVEC proliferation, CellTiter-Glo luminescence, 72 h; at 10 µM; hits give low values;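 also: 100% = median of untreated cell wells with 0.1% DMSO on each plate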
Recorded viability, one value per entry.
Respond numerically; units are % and should not be typed.

Solved entries (count: 5):
>  <compound>
COc1ccc(-c2cc3nc4n(c(=O)c3s2)CCC4)cc1

>  <viability (%)>
103

$$$$
>  <compound>
Cc1cc(C)n2nc(C(=O)NCc3ccco3)nc2n1

>  <viability (%)>
91.4

$$$$
>  <compound>
Cc1ccc(CSC2=NCCN2C(=O)C2CC2)cc1

>  <viability (%)>
83.3

$$$$
>  <compound>
CC(C(=O)N1CCCCC1)n1sc2ccccc2c1=O (stereo unspecified)

>  <viability (%)>
88

$$$$
>  <compound>
CCOC(=O)c1ccc(Oc2nc(SC)nc(N(C)C)n2)cc1

>  <viability (%)>
85

$$$$

The record that follows has no viability shown yet.
**Q:** Identify measured viability associated with `Cn1c(=N)c(S(=O)(=O)c2ccc(Cl)cc2)cc2c(=O)n3ccccc3nc21`
**A:** 85.4

---

assay: reversal of MRP1-mediated doxorubicin resistance, pilot screen, H69AR cells, doxorubicin co-treatment (AID 601); conditions: H69AR cells + 2 uM doxorubicin, CellTiter-Glo, 72 h; at 10 µM; hits give high values
Activity calls are given as the source filed them.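 The calls were made as follows: active = viability loss from added drug above about 55%, and viability with drug at most 40%, in both replicates (limit read from the data, passing the limit was not always enough); inconclusive = both conditions met in only one replicate; inactive = neither replicate meets both conditions.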
measure: differential viability (reversal)

Solved entries (count: 3):
>  <molecule>
Cc1cccc2cc(CN(CC3CCCO3)C(=O)c3cnccn3)c(=O)[nH]c12 (stereo not given)

>  <differential viability (reversal)>
-2.77% (inactive)

$$$$
>  <molecule>
Nc1nc(F)nc2c1ncn2[C@@H]1O[C@H](CO)[C@@H](O)[C@@H]1O

>  <differential viability (reversal)>
-2.94% (inactive)

$$$$
>  <molecule>
CCN(C(=O)c1cc2cc3ccc(C)cc3nc2o1)c1ccc(OC)cc1

>  <differential viability (reversal)>
-12.9% (inactive)

$$$$

**Q:** Identify measured differential viability (reversal) associated with `CC(=O)c1cccc(-n2nnnc2SCC(=O)N2CCCC2)c1`
**A:** -2.82% (inactive)

**Q:** Identify measured differential viability (reversal) associated with `O=C(CN(Cc1ccco1)C(=O)CNS(=O)(=O)c1ccc(F)cc1)NCCc1ccccc1`
**A:** 0.9% (inactive)

**Q:** Identify measured differential viability (reversal) associated with `O=C(CSc1nccn1-c1cccc(Cl)c1)NC1CCCC1`
**A:** 10.3% (inactive)

**Q:** Identify measured differential viability (reversal) associated with `CCC(=O)N1CCc2cc(S(=O)(=O)CCC(=O)Nc3ccc(C)c(F)c3)ccc21`
**A:** 2.27% (inactive)

**Q:** Identify measured differential viability (reversal) associated with `CC1(C)O[C@@H]2C[C@H]3[C@@H]4CCC5=CC(=O)C=C[C@]5(C)[C@@]4(F)[C@@H](O)C[C@]3(C)[C@]2(C(=O)CO)O1`
**A:** -10.5% (inactive)

**Q:** Identify measured differential viability (reversal) associated with `CCN(CC)S(=O)(=O)c1ccc(Br)c(OC)c1`
**A:** 5.01% (inactive)

**Q:** Identify measured differential viability (reversal) associated with Cc1cccc(CCNC(=O)C2CCCN(S(=O)(=O)c3cnc[nH]3)C2)c1 (stereo not given)
**A:** 3.16% (inactive)
